Measured fraction unbound accompanies every entry in the list below.
Assay remarks: Fraction unbound in rat brain
Assay type: ADME, tissue-based
The answer should be written as a number, with no unit following it.

CC(C)(C#N)n1nnc2c1CCC(c1nc(-c3ccc(F)cc3)no1)C2 (centres undefined) : 0.015

Identify measured fraction unbound associated with CC(C)(C)n1nnc2c1CCC(n1cnc(-c3ccc(F)cc3)n1)C2 (centres undefined) 0.056

Tell me fraction unbound reported for CC(C)(C)n1nnc2c1CCC(c1nc(-c3ccc(F)cc3)no1)C2 (centres undefined) 0.013

Output measured fraction unbound for this item: Fc1ccc(-c2noc(C3CCc4c(nnn4-c4ccc(F)cc4)C3)n2)cc1 (centres undefined) 0.003
